# assay.target: Rap guanine nucleotide exchange factor 4 (Homo sapiens) (UniProt Q8WZA2)
# Sequence (Q8WZA2 whole entry, looked up): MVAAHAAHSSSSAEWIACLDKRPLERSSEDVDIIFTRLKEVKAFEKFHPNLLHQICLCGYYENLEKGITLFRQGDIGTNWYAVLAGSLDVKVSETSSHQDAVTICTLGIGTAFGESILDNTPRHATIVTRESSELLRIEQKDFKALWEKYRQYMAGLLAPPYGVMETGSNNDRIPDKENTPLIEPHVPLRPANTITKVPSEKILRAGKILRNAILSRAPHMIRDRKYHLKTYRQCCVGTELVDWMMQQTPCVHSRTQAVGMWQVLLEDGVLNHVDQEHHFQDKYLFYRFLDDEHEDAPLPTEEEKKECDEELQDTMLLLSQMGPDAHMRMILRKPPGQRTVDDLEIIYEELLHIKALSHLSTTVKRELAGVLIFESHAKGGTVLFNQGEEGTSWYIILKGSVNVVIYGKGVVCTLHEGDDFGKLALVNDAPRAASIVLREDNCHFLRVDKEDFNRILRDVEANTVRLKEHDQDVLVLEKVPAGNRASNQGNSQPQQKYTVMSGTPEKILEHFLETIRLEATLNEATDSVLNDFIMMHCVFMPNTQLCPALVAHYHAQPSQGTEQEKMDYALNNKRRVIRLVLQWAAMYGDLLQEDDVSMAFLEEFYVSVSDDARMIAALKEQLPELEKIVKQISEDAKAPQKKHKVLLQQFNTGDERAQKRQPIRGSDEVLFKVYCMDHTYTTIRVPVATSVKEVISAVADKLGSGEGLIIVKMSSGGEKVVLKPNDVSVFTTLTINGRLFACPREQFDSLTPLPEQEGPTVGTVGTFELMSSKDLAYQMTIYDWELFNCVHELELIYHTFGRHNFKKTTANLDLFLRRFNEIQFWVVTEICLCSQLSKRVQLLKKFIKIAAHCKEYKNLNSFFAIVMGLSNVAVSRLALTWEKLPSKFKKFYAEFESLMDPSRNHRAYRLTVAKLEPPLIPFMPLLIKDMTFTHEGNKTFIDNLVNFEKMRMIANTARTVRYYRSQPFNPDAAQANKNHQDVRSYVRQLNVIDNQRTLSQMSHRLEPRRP
# test.method.notes: Confirmatory qHTS for antagonist of cAMP-regulated guanine nucleotide exchange factor 4 (EPAC2) (AID 1645885); also: nearly all actives have a fitted effect of over 25% in size
# condition: EPAC2 Rap1B-BODIPY-GDP exchange fluorescence, biochemical; series mostly up to 12.7 µM
Results filed as inconclusive are left out. Activity calls are given as the source filed them. Calls follow the shape of the dose curve; as a rule, active = well fitted inhibition curve with a large enough effect; inconclusive = small, poorly fitted or top-dose-only effect; inactive = no such curve, though single readings can be large or run the other way.
Pick one: 1 for active, -1 for inactive

compound: COC(=O)c1c(SC)nc2ccccc2c1OCc1ccc(Cl)cc1
category.label: -1

Query block: # outcome recorded in this test, key = `O=C(NCc1ccco1)c1sc(=S)n2c1[nH]c(=O)c1ccccc12`
Result block: -1

Query block: # outcome recorded in this test, key = O=C(CC1Sc2ccccc2NC1=O)OCc1cc(=O)oc2cc(O)ccc12 (centres undefined)
Result block: -1

Query block: # outcome recorded in this test, key = `O=C(NCc1ccco1)c1c2c(nc3ccccc13)CCC2`
Result block: -1

Query block: # outcome recorded in this test, key = CC(=O)NC(C)(c1ccccc1)c1nc(-c2cccc(C(F)(F)F)c2)cs1 (centres undefined)
Result block: -1

Query block: # outcome recorded in this test, key = `O=C1CS(=O)(=O)N(Cc2cccc(F)c2)c2ccc(Br)cc21`
Result block: -1

Query block: # outcome recorded in this test, key = `O=C(O)CN1C(=O)/C(=C\c2ccccc2OCc2ccc(Cl)cc2)SC1=S`
Result block: 1

Query block: # outcome recorded in this test, key = `CC(=O)/C(=N\Nc1ccccc1)Sc1cccc2cccnc12`
Result block: 1

Query block: # outcome recorded in this test, key = `CCCCOc1c(Br)cc(/C=N/O)cc1OCC`
Result block: -1

Query block: # outcome recorded in this test, key = `CCCCNC(=O)c1cc(-c2ccc3c(c2)OCO3)on1`
Result block: -1

Query block: # outcome recorded in this test, key = `COC(=O)c1ccc(CSc2ccc3nnc(-c4cccc(F)c4)n3n2)o1`
Result block: -1

---

# assay.target: Rap guanine nucleotide exchange factor 3 (Homo sapiens)
# test.method.notes: Counterscreen qHTS for antagonist of cAMP-regulated guanine nucleotide exchange factor 3 (EPAC1) (AID 1645888);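 also: fluorescence loss as bound BODIPY-GDP is released from Rap1B; % of control where 0% means no effect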
# condition: Rap1B-BODIPY-GDP nucleotide exchange, fluorescence; series mostly up to 154 µM
Records with an inconclusive call do not appear. The source made the active and inactive calls. The call rests on the fitted dose curve; in most records, active means well fitted inhibition curve with a large enough effect; inconclusive means small, poorly fitted or top-dose-only effect; inactive means no such curve, though single readings can be large or run the other way.
measure.name: activity change, negative = inhibition

compound: Cc1ccc(NC(=O)CC2S/C(=N/N=C3\CCCc4ccccc43)NC2=O)cc1 (stereo not given)
assay.target: Rap guanine nucleotide exchange factor 3 (Homo sapiens)
activity change, negative = inhibition: -9.99% [at 30.8 µM] (inactive)

compound: CCOc1ccc(-n2c(C)nc3cc(C(=O)NCc4ccc(C)cc4)ccc32)cc1
assay.target: Rap guanine nucleotide exchange factor 3 (Homo sapiens)
activity change, negative = inhibition: inactive

compound: N=C1/C(=C/c2coc3ccccc3c2=O)C(=O)N=C2SC(c3ccco3)=NN12
assay.target: Rap guanine nucleotide exchange factor 3 (Homo sapiens)
activity change, negative = inhibition: inactive

compound: COc1ccccc1N1CCN(S(=O)(=O)c2ccc3c(c2)NC(=O)C(C)C(=O)N3)CC1 (stereo not given)
assay.target: Rap guanine nucleotide exchange factor 3 (Homo sapiens)
activity change, negative = inhibition: inactive

compound: Fc1cccc(Cc2c(-c3ccc(Cl)cc3)nc3ccc(Cl)cn23)c1
assay.target: Rap guanine nucleotide exchange factor 3 (Homo sapiens)
activity change, negative = inhibition: -4.02% [at 30.8 µM] (inactive)

compound: Cn1c(=O)c(N)c2c3c(c(Br)ccc31)C(=O)c1ccccc1-2
assay.target: Rap guanine nucleotide exchange factor 3 (Homo sapiens)
activity change, negative = inhibition: inactive

compound: O=C1c2ccccc2C(=O)C12OC2c1cccc2ccccc12 (stereo not given)
assay.target: Rap guanine nucleotide exchange factor 3 (Homo sapiens)
activity change, negative = inhibition: inactive

compound: COc1ccc(OC)c(CNC(=O)CCCc2cn(C)c3ccccc23)c1
assay.target: Rap guanine nucleotide exchange factor 3 (Homo sapiens)
activity change, negative = inhibition: inactive

Query block: Hi! What's the reported activity change, negative = inhibition for `CCOC(=O)c1ccc2[nH]cc(C(C)=O)c(=O)c2c1` on Rap guanine nucleotide exchange factor 3 (Homo sapiens)?
Result block: inactive

Query block: Hi! What's the reported activity change, negative = inhibition for `CN(C)S(=O)(=O)c1cccc(COC(=O)Cc2c(F)cccc2Cl)c1` on Rap guanine nucleotide exchange factor 3 (Homo sapiens)?
Result block: inactive
